Hey, just so you know, these numbers are from paper PMC10092094.

# TARGET_OR_SYSTEM: OGG1 (Homo sapiens)
# TEST_METHOD_NOTES: biochemical
# CONDITION_NOTES: IC50, biochemical inhibition, single replicate
PROPERTY: pIC50
Here pIC50 is given on a logarithmic scale as minus log10 of the concentration in mol/L.

Exercise: Identify measured pIC50 obtained with OGG1 (Homo sapiens) for COc1ccc(NC(=O)N2CCC(n3c(=O)[nH]c4c(Br)cccc43)CC2)cc1 .
Solution: 5.51

Exercise: // fetch pIC50; item: Cc1cccc2[nH]c(=O)n(C3CCN(C(=O)Nc4ccc(I)cc4)CC3)c12 ; system: OGG1 (Homo sapiens)
Solution: 5.06

Exercise: Tell me its pIC50 on OGG1 (Homo sapiens): O=C(Nc1ccc(Br)cc1)N1CCC(n2c(=O)[nH]c3cc(Cl)ccc32)CC1
Solution: 5.80

---

# TARGET_OR_SYSTEM: OGG1 (Homo sapiens)
# TEST_METHOD_NOTES: biochemical

{"CPD_SMILES": "O=C(NC1CCCCC1)N1CCC(n2c(=O)[nH]c3c(Br)cccc32)CC1", "Activity against OGG1 (in words)": "only weakly active"}
{"CPD_SMILES": "COc1ncc(NC(=O)N2CCC(n3c(=O)[nH]c4c(Br)cccc43)CC2)cc1C", "Activity against OGG1 (in words)": "only weakly active"}

---

# TARGET_OR_SYSTEM: OGG1 (Homo sapiens, UniProt O15527)
# Sequence (O15527 whole entry): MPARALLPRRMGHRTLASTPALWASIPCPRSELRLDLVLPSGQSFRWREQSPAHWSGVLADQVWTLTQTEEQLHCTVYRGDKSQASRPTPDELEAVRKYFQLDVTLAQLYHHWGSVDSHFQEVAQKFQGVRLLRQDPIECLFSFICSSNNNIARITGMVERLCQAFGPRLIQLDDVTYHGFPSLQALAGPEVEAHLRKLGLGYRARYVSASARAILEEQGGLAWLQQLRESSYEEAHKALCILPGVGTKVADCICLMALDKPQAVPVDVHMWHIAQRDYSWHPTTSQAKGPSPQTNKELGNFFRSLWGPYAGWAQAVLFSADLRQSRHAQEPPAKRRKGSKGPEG
# TEST_METHOD_NOTES: Differential scanning fluorimetry
# Assay type: binding
PROPERTY: DSF stabilization (ΔT) (K)
Quick note: give the figure in K, leave out the unit.

Exercise: Give reported DSF stabilization (ΔT) value for O=C(Nc1ccc(Cl)cc1)N1CCC(n2c(=O)[nH]c3c(Br)cccc32)CC1 [Compound 43]
Solution: 4.2

Exercise: Fill in DSF stabilization (ΔT) for record Cc1ccc2c(c1)[nH]c(=O)n2C1CCN(C(=O)Nc2ccc(I)cc2)CC1 [Compound 21]
Solution: 3.8

Exercise: Tell me its DSF stabilization (ΔT) given COc1cc(NC(=O)N2CCC(n3c(=O)[nH]c4c(Br)cccc43)CC2)ccc1C [Compound 55] as the entry.
Solution: 1.8

Exercise: For the compound O=C(Nc1ccc(Cl)c(Cl)c1)N1CCC(n2c(=O)[nH]c3c(Br)cccc32)CC1 [Compound 53] , report DSF stabilization (ΔT).
Solution: 3.1

Exercise: Quick one: give measured DSF stabilization (ΔT) for O=C(Nc1ccc(I)cc1)N1CCC(n2c(=O)[nH]c3ccccc32)CC1 [Compound 8]
Solution: 2.4

Exercise: Determine from records and report DSF stabilization (ΔT) for O=C(Nc1ccc(I)cc1)N1CCC(n2c(=O)[nH]c3cc(Cl)ccc32)CC1 [Compound 18]
Solution: 1.6

Exercise: Report DSF stabilization (ΔT), nothing else, for this compound: O=C(Nc1ccc(Br)cc1)N1CCC(n2c(=O)[nH]c3ccccc32)CC1 [Compound 7]
Solution: 2.1

Exercise: # return recorded DSF stabilization (ΔT) for entry O=C(Nc1ccc(Br)cc1)N1CCC(n2c(=O)[nH]c3c(Br)cccc32)CC1 [Compound 44]
Solution: 4.2

Exercise: Specify reported DSF stabilization (ΔT) for the compound shown: COc1ccc(NC(=O)N2CCC(n3c(=O)[nH]c4c(Br)cccc43)CC2)cc1OC [Compound 56]
Solution: 5.1

Exercise: Consider the compound O=C(Nc1ccc(I)cc1)N1CCC(n2c(=O)[nH]c3c(F)cccc32)CC1 [Compound 24] and give its recorded DSF stabilization (ΔT).
Solution: 3.9

Exercise: Provide one value: measured DSF stabilization (ΔT) of O=C(Nc1ccc(Cl)c(Cl)c1)N1CCC(n2c(=O)[nH]c3ccccc32)CC1 [Compound 9]
Solution: 4.7

Exercise: // Input: O=C(Nc1ccc(Cl)c(Cl)c1)N1CCC(n2c(=O)[nH]c3cc(Cl)ccc32)CC1 [Compound 19] . Output its DSF stabilization (ΔT) only.
Solution: 3.1

Exercise: Please list DSF stabilization (ΔT) recorded for the compound O=C(Nc1ccccc1)N1CCC(n2c(=O)[nH]c3cc(Cl)ccc32)CC1 [Compound 11]
Solution: 3.3

Exercise: Tell me DSF stabilization (ΔT) reported for COc1ccc(NC(=O)N2CCC(n3c(=O)[nH]c4c(Br)cccc43)CC2)cc1 [Compound 47]
Solution: 4.1

Exercise: # return recorded DSF stabilization (ΔT) for input O=C(Nc1ccc(Br)cc1)N1CCC(n2c(=O)[nH]c3cc(Cl)ccc32)CC1 [Compound 17]
Solution: 4.1

Exercise: Entry COc1cccc2c1[nH]c(=O)n2C1CCN(C(=O)Nc2ccc(I)cc2)CC1 [Compound 27] needs its DSF stabilization (ΔT) filled in; supply it.
Solution: 4.2

Exercise: // fetch DSF stabilization (ΔT) given entry Cc1cccc2c1[nH]c(=O)n2C1CCN(C(=O)Nc2ccc(I)cc2)CC1 [Compound 20]
Solution: 3.8

Exercise: Give the reported value of DSF stabilization (ΔT) for this record: Cc1ccc(NC(=O)N2CCC(n3c(=O)[nH]c4c(Br)cccc43)CC2)cc1 [Compound 45]
Solution: 5.1

---

# TARGET_OR_SYSTEM: OGG1 (Homo sapiens, UniProt O15527)
# TEST_METHOD_NOTES: biochemical
# CONDITION_NOTES: IC50 (CI95), biochemical inhibition, confidence interval 95 in parentheses
PROPERTY: IC50 (nM)
Answer format: numeric, nM implied, no suffix.

Exercise: State its IC50 for this compound: O=C(Nc1ccc(Br)cc1)N1CCC(n2c(=O)[nH]c3c(Br)cccc32)CC1 [Compound 44]
Solution: 190

Exercise: Check the records and state IC50 for O=C(Nc1ccc(Cl)cc1)N1CCC(n2c(=O)[nH]c3cc(Cl)ccc32)CC1 [Compound 16]
Solution: 2000

Exercise: Give reported IC50 value for CC(C)(C)c1ccc(NC(=O)N2CCC(n3c(=O)[nH]c4c(Br)cccc43)CC2)cc1 [Compound 46]
Solution: 46000

Exercise: Answer with the recorded IC50 for the compound listed here: COc1ccc(NC(=O)N2CCC(n3c(=O)[nH]c4c(Br)cccc43)CC2)cc1OC [Compound 56]
Solution: 4400

Exercise: Indicate the recorded IC50 value for this compound: COc1cc(NC(=O)N2CCC(n3c(=O)[nH]c4c(Br)cccc43)CC2)ccc1C [Compound 55]
Solution: 200

---

# TARGET_OR_SYSTEM: OGG1 (Homo sapiens, UniProt O15527)
# TEST_METHOD_NOTES: biochemical
# CONDITION_NOTES: IC50 (CI95), biochemical inhibition, confidence interval 95 in parentheses
PROPERTY: IC50 (nM)
Field format: number, assumed nM, no unit text.

Exercise: Name the recorded IC50 of the molecule listed here: O=C(Nc1ccc(Cl)c(Cl)c1)N1CCC(n2c(=O)[nH]c3c(Br)cccc32)CC1 [Compound 53]
Solution: 440

Exercise: Tell me measured IC50 for COc1cccc2c1[nH]c(=O)n2C1CCN(C(=O)Nc2ccc(I)cc2)CC1 [Compound 27] please.
Solution: 910

Exercise: Entry Cc1ccc2c(c1)[nH]c(=O)n2C1CCN(C(=O)Nc2ccc(I)cc2)CC1 [Compound 21] needs its IC50 filled in; supply it.
Solution: 1700

Exercise: Read the entry Cc1ccc(NC(=O)N2CCC(n3c(=O)[nH]c4c(Br)cccc43)CC2)cc1 [Compound 45] and write its reported IC50.
Solution: 2100

Exercise: Return reported IC50. Input molecule: Cc1ccc(NC(=O)N2CCC(n3c(=O)[nH]c4ccccc43)CC2)cc1 [Compound 4]
Solution: 19900

Exercise: Please indicate IC50 recorded for O=C(Nc1cccc(F)c1)N1CCC(n2c(=O)[nH]c3cc(Cl)ccc32)CC1 [Compound 12]
Solution: 35100

Exercise: Give the reported value of IC50 for this record: COc1cc(NC(=O)N2CCC(n3c(=O)[nH]c4c(OC)cccc43)CC2)ccc1C [TH9525]
Solution: 2000

Exercise: Output IC50 of O=C(Nc1ccc(I)cc1)N1CCC(n2c(=O)[nH]c3c(F)cccc32)CC1 [Compound 24]
Solution: 2200

Exercise: Tell me measured IC50 for O=C(Nc1ccc(Br)cc1)N1CCC(n2c(=O)[nH]c3ccccc32)CC1 [Compound 7] please.
Solution: 7000

Exercise: In one line, give reported IC50 of the entry CN(C)c1ccc(NC(=O)N2CCC(n3c(=O)[nH]c4c(Br)cccc43)CC2)cc1 [Compound 52] .
Solution: 32200

Exercise: Identify measured IC50 associated with O=C(Nc1ccc(I)cc1)N1CCC(n2c(=O)[nH]c3ccccc32)CC1 [Compound 8]
Solution: 2900

Exercise: Answer with reported IC50 of O=C(Nc1ccc(Cl)cc1)N1CCC(n2c(=O)[nH]c3ccccc32)CC1 [Compound 6]
Solution: 5500

Exercise: Consider the molecule Cc1cccc2c1[nH]c(=O)n2C1CCN(C(=O)Nc2ccc(I)cc2)CC1 [Compound 20] and give its recorded IC50.
Solution: 630

Exercise: Using known records, supply IC50 for O=C(Nc1ccc(C(F)(F)F)cc1)N1CCC(n2c(=O)[nH]c3c(Br)cccc32)CC1 [Compound 49]
Solution: 1600

Exercise: Quote IC50 reported for COc1cc(NC(=O)N2CCC(n3c(=O)[nH]c4c(Br)cccc43)CC2)ccc1Cl [Compound 54] please.
Solution: 300

Exercise: Respond only with IC50 recorded for O=C(Nc1ccc(Cl)c(Cl)c1)N1CCC(n2c(=O)[nH]c3ccccc32)CC1 [Compound 9]
Solution: 2900

Exercise: Let me know recorded IC50 for O=C(Nc1ccc(Cl)cc1)N1CCC(n2c(=O)[nH]c3c(Br)cccc32)CC1 [Compound 43] , thanks.
Solution: 350
